target: Ionotropic glutamate receptor NMDA 1/2D (Rattus norvegicus, UniProt P35439+Q62645); assay: Partial agonist activity at recombinant rat GluN1/GluN2D NMDA receptor expressed in xenopus laevis oocytes in presence of L-glutamate by two-electrode voltage-clamp method
Sequence (Q62645 whole entry, other chains not shown): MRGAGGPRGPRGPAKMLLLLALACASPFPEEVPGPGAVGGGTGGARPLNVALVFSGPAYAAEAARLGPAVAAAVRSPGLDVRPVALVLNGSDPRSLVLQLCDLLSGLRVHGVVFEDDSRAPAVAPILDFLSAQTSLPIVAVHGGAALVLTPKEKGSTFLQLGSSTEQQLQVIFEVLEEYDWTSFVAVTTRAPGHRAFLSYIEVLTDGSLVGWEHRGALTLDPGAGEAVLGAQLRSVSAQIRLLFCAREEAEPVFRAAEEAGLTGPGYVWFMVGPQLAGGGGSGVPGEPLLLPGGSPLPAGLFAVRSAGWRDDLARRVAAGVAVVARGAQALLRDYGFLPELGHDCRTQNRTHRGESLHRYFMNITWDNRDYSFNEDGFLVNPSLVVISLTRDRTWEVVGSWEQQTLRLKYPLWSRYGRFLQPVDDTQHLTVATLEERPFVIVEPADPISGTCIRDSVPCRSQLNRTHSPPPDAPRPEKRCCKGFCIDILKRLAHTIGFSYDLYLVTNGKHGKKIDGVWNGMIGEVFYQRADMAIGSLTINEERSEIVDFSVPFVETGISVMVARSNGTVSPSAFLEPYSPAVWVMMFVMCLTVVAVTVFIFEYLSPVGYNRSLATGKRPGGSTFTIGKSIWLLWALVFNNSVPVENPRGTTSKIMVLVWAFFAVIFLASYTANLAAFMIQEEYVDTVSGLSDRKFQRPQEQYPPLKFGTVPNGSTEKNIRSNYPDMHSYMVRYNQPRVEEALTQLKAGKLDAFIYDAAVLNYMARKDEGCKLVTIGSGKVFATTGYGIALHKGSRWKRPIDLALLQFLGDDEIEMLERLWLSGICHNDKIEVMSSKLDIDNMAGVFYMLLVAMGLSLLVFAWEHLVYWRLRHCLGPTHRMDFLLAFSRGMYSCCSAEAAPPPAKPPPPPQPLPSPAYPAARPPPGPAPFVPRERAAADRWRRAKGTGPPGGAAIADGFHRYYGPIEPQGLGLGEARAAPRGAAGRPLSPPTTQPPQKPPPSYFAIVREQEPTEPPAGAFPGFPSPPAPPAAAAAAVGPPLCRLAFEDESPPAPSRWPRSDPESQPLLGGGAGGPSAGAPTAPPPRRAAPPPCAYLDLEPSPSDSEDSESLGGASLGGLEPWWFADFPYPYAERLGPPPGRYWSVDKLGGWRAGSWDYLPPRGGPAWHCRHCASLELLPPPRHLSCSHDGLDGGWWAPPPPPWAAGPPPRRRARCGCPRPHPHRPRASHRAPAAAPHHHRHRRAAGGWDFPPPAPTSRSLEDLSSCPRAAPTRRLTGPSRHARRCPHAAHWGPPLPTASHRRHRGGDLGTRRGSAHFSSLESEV
pEC50: −log10 of the molar value.
value.type: pEC50

# count of solved cases: 5
COc1ccccc1-c1ccc(C(=O)NC[C@@H](N)C(=O)O)s1 ... 5.89
N[C@H](CNC(=O)c1ccc(-c2cccc(F)c2F)s1)C(=O)O ... 5.45
N[C@H](CNC(=O)c1cc(Br)c(-c2ccccc2Br)s1)C(=O)O ... 7.80
N[C@H](CNC(=O)c1ccc(-c2cccc(F)c2)s1)C(=O)O ... 5.25
N[C@H](CNC(=O)c1ccc(-c2ccccc2)s1)C(=O)O ... 5.49

a. N[C@H](CNC(=O)c1ccc(-c2ccccc2Br)s1)C(=O)O
b. COc1ccc(F)cc1-c1ccc(C(=O)NC[C@@H](N)C(=O)O)s1
Query: Which one would you say has the larger pEC50 value: a , or b ? Answer = label.
Reply: a
(a: 7.14, b: 5.84)

P. N[C@H](CNC(=O)c1ccc(-c2ccccc2F)s1)C(=O)O
Q. N[C@H](CNC(=O)c1ccc(-c2cccc3ccccc23)s1)C(=O)O
Query: Which one would you say has the larger pEC50 value: P , or Q ? Answer = label.
Reply: Q
(Q: 6.52, P: 6.01)

1. N[C@H](CNC(=O)c1cc(Br)c(-c2ccccc2F)s1)C(=O)O
2. CCc1ccccc1-c1ccc(C(=O)NC[C@@H](N)C(=O)O)s1
Query: Decide: 1 or 2 , by lowest recorded pEC50. Answer = label.
Reply: 1

====

experiment: Apparent permeability across apical to basolateral side in dog MDR1-deficient MDCK cells expressing human MDR1 at 3 uM by LC-MS/MS analysis; type: ADME, cell-based, Canis lupus familiaris
value.type: Papp (×10⁻⁶ cm/s)

# count of solved cases: 3
N[C@H](CNC(=O)c1cc(Br)c(-c2ccccc2F)s1)C(=O)O ... 1.6
COC(=O)c1ccccc1-c1c2ccc(=N)cc-2oc2cc(N)ccc12.Cl ... 0.77
CCc1ccccc1-c1cccc2[nH]c(C(=O)NC[C@@H](N)C(=O)O)cc12 ... 0.81

a. CCc1ccccc1-c1ccc(C(=O)NC[C@@H](N)C(=O)O)s1
b. N[C@H](CNC(=O)c1cc(Br)c(-c2ccccc2Br)s1)C(=O)O
c. CC(C)OC(=O)[C@H](N)CNC(=O)c1ccc(-c2ccccc2Br)s1
d. N[C@H](CNC(=O)c1ccc(-c2ccccc2Br)s1)C(=O)O
Query: Descending sort on Papp required. Would you mind listing the labels in the order requested?
Reply: c, a, b, d
(c: 107.4 ×10⁻⁶ cm/s, a: 2 ×10⁻⁶ cm/s, b: 0.9 ×10⁻⁶ cm/s, d: 0.53 ×10⁻⁶ cm/s)

====

molecular target: Glutamate NMDA receptor; Grin1/Grin2a (Rattus norvegicus, UniProt P35439+Q00959); test: Partial agonist activity at recombinant rat GluN1/GluN2A NMDA receptor expressed in xenopus laevis oocytes in presence of L-glutamate by two-electrode voltage-clamp method
Sequence (Q00959 whole entry, other chains not shown): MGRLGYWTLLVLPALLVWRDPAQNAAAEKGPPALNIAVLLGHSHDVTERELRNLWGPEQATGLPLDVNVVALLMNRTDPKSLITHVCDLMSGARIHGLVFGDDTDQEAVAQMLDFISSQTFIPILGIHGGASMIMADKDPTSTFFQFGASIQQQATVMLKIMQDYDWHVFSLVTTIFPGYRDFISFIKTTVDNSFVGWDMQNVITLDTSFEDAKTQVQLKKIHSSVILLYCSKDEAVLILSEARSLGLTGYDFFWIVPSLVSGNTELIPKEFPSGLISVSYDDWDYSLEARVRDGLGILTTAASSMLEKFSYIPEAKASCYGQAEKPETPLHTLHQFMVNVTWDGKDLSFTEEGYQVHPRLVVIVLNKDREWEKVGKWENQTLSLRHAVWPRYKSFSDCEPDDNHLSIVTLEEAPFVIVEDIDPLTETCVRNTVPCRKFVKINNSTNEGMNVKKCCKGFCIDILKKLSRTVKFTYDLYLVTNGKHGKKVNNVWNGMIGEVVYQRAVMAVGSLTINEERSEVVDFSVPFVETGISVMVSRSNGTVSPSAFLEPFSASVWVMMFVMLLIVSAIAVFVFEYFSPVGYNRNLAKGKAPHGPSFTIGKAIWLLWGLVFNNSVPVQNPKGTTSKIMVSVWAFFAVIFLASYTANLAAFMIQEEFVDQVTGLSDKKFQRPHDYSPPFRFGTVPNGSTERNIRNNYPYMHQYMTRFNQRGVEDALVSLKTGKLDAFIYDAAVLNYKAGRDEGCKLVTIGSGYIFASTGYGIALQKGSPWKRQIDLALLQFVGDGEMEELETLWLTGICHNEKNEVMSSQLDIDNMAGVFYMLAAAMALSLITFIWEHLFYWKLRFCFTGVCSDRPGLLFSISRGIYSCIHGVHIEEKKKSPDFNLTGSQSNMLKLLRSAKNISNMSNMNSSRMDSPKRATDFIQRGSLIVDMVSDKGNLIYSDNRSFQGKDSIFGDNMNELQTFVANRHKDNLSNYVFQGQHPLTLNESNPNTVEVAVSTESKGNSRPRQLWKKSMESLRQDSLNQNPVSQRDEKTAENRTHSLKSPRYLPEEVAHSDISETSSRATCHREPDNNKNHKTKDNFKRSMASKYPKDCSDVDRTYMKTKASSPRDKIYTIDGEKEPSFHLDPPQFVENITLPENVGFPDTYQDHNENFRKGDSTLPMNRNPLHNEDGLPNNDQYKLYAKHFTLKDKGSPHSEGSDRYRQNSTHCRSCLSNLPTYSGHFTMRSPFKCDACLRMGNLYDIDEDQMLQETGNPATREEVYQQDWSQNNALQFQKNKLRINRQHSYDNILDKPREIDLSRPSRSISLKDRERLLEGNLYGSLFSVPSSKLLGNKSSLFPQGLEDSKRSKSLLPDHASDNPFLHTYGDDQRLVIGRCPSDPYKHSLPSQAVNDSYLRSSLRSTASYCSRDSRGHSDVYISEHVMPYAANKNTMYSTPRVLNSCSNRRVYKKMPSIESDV
value.type: EC50 (nM)

N[C@H](CNC(=O)c1ccc(-c2cccc(F)c2F)s1)C(=O)O ... 1990
N[C@H](CNC(=O)c1ccc(-c2ccccc2)s1)C(=O)O ... 2280
CCc1ccccc1-c1ccc(C(=O)NC[C@@H](N)C(=O)O)s1 ... 57

a. N[C@H](CNC(=O)c1ccc(-c2ccccc2Br)s1)C(=O)O
b. COc1ccc(F)cc1-c1ccc(C(=O)NC[C@@H](N)C(=O)O)s1
Query: Decide: a or b , by lowest recorded EC50. Answer = label.
Reply: a

1. N[C@H](CNC(=O)c1ccc(-c2cccc3ccccc23)s1)C(=O)O
2. N[C@H](CNC(=O)c1cc(Br)c(-c2ccccc2F)s1)C(=O)O
3. N[C@H](CNC(=O)c1ccc(-c2ccccc2F)s1)C(=O)O
4. Cc1cc(C(=O)NC[C@@H](N)C(=O)O)sc1-c1ccccc1Br
5. COc1ccccc1-c1ccc(C(=O)NC[C@@H](N)C(=O)O)s1
Query: Ascending sort, EC50. Would you mind listing the labels in the order requested?
Reply: 4, 1, 2, 3, 5
